System: DU-145 prostate
Assay: NCI-60 one-dose screen, 48 h (100 = growth as untreated, 0 = no growth, -100 = all killed)
Settings: 10 µM
About 83,000 compounds went through this panel and 20% of them were active in at least one assay; those are over-represented in the sample as a whole.
# note: exactly 80% is not below, so it is 0.0; use 1.0 for growth strictly under it

[
  {
    "compound": "COc1ccc(Cc2nn(CC(=O)N/N=C/c3ccc(Br)cc3)c(=O)c3c(C)noc23)cc1",
    "measured target": "DU-145 prostate",
    "label class": 1.0
  },
  {
    "compound": "COc1ccc(C2c3sc4ccc(C)cc4c3Oc3nc(N)nc(N)c32)cc1 (configuration not stated)",
    "measured target": "DU-145 prostate",
    "label class": 0.0
  },
  {
    "compound": "Cc1ccc(-c2nc(C#N)c(S(=O)(=O)N3CCN(S(C)(=O)=O)CC3)o2)cc1",
    "measured target": "DU-145 prostate",
    "label class": 1.0
  },
  {
    "compound": "CCOC(=O)C1=C(N)N(c2ccc(C)cc2)C2=C(C(=O)CC(C)(C)C2)C1c1ccccc1Br (configuration not stated)",
    "measured target": "DU-145 prostate",
    "label class": 0.0
  },
  {
    "compound": "O=C(CSc1nc2ccccc2c(=O)n1-c1ccc(Cl)cc1)Nc1ccc(-c2nc3ccccc3[nH]2)cc1",
    "measured target": "DU-145 prostate",
    "label class": 1.0
  },
  {
    "compound": "CC(C)(C)c1cc(/C=C2\\S/C(=N/c3ncn[nH]3)NC2=O)cc(C(C)(C)C)c1O",
    "measured target": "DU-145 prostate",
    "label class": 1.0
  },
  {
    "compound": "COc1cc(C2CC(c3ccc(Oc4ccc(Cl)cc4)cc3)=NN2c2nc(-c3ccc(Cl)cc3)c(C#N)c(N3CCOCC3)n2)cc(OC)c1OC (configuration not stated)",
    "measured target": "DU-145 prostate",
    "label class": 0.0
  },
  {
    "compound": "O=C(c1ccc(Cl)cc1)C(c1c[nH]c2ccccc12)c1c[nH]c2ccccc12",
    "measured target": "DU-145 prostate",
    "label class": 1.0
  },
  {
    "compound": "COc1ccc(C(=O)COc2ccc(NC(=O)Nc3ccccc3)cc2)cc1",
    "measured target": "DU-145 prostate",
    "label class": 0.0
  },
  {
    "compound": "COc1ccccc1-n1cc(C#N)c(N)c1C(=O)c1ccc(Cl)cc1Cl",
    "measured target": "DU-145 prostate",
    "label class": 1.0
  },
  {
    "compound": "Cn1cc(-c2cc3nc(-c4c[nH]c5ccccc45)cc(N)n3n2)c2cc(Cl)ccc21",
    "measured target": "DU-145 prostate",
    "label class": 1.0
  },
  {
    "compound": "Cn1cc(-c2nc(N)nnc2-c2c[nH]c3ccccc23)c2cc(Br)cnc21",
    "measured target": "DU-145 prostate",
    "label class": 1.0
  },
  {
    "compound": "COc1ccc(C(=O)COc2ccc(NC(=O)Nc3ccc(Cl)c(C(F)(F)F)c3)cc2)cc1",
    "measured target": "DU-145 prostate",
    "label class": 1.0
  },
  {
    "compound": "COc1cc2oc(-c3cccc(C(=O)Nc4ccc(Cl)cc4)c3)cc(=O)c2c(OCCN)c1OC",
    "measured target": "DU-145 prostate",
    "label class": 1.0
  },
  {
    "compound": "O=C(CC(=O)Nc1ccc(Oc2ncnc3scc(Nc4n[nH]c(=S)s4)c23)cc1)Nc1ccc(Br)cc1",
    "measured target": "DU-145 prostate",
    "label class": 0.0
  },
  {
    "compound": "CCOc1ccc(/C=N/NC(=O)Cn2nc(Cc3ccc(OC)cc3)c3onc(C)c3c2=O)cc1",
    "measured target": "DU-145 prostate",
    "label class": 1.0
  },
  {
    "compound": "O=C(CN1CCN(c2ncnc3c2cnn3-c2ccccc2)CC1)Nc1ccc(Cl)cc1",
    "measured target": "DU-145 prostate",
    "label class": 1.0
  },
  {
    "compound": "Cc1cc(N=C2NC(=O)S/C2=C\\c2ccc(F)cc2)n[nH]1",
    "measured target": "DU-145 prostate",
    "label class": 1.0
  },
  {
    "compound": "C#C[C@]1(O)CC[C@H]2[C@@H]3CC=C4c5sc(Nc6ccc(C(F)(F)F)cn6)nc5CC[C@]4(C)[C@H]3CC[C@@]21C",
    "measured target": "DU-145 prostate",
    "label class": 1.0
  },
  {
    "compound": "O=C1NC2C=CC=CC2/C1=C1/SC(=S)N(C2CC(=O)N(c3ccc(Br)cc3)C2=O)C1=O (configuration not stated)",
    "measured target": "DU-145 prostate",
    "label class": 0.0
  }
]
